Entries and their IC90
- System: KB cells
- test protocol: Soft-Agar-Colony-Assay with KB cells in vitro
- Format: cell-based
- test context: Homo sapiens, colony formation inhibited up to 90%, effective criterion EC90 <10 μg/ml

compound: CCCCCCCCCCCCCCCCCCOP(=O)([O-])OCC[P+](CC)(CC)c1ccccc1
prefix operator: =
IC90 (µg/mL): 3.1
--
compound: CCCCCCCCCCCCCCCCCCCOP(=O)([O-])OCC[P+](C)(C)C
prefix operator: =
IC90 (µg/mL): 2.6
--
compound: CCCCCCCCCCCCCCCCCCOP(=O)([O-])OCC[P+](C)(C)C
prefix operator: =
IC90 (µg/mL): 3.1
--
compound: CCCCCCCCCCCCCCCCCCOCC(COP(=O)([O-])OCC[P+](C)(C)C)OC (racemic)
prefix operator: =
IC90 (µg/mL): 2.7
--
compound: CCCCCCCC/C=C\CCCCCCCCCCCCOP(=O)([O-])OCC[P+](CC)(CC)c1ccccc1
prefix operator: =
IC90 (µg/mL): 3.1
--
compound: CCCCCCCC/C=C\CCCCCCCCCCCCOP(=O)([O-])OCCC[P+](C)(C)C
prefix operator: >
IC90 (µg/mL): 10
--
compound: CCCCCCCCCCCCCCCCOP(=O)([O-])OCCC[P+](C)(C)C
prefix operator: >
IC90 (µg/mL): 10
--
compound: CCCCCCCCCCCCCCCCOP(=O)([O-])OCC[P+](C)(C)C
prefix operator: >
IC90 (µg/mL): 10
